Tested on: SF-295 CNS
Assay: NCI tumour cell line growth inhibition, 48 h
For each of the compounds below, state its TGI.

Count: 4. Required value per item: TGI.
1. CC(CNC(N)=O)NC(N)=O (stereo not given)
2. C#C[C@@]1(O)[C@@H](CO)O[C@@H](n2cc(I)c3c(N)ncnc32)[C@@H]1O
3. CCN(CC)CC1CCCCN1CC(=O)N1CC(C)C(=O)Nc2ccccc21 (stereo not given)
4. Cc1ccc([N+](=O)[O-])c2c(NCCNC(=O)c3cc(C(=O)NCCNc4ccnc5c(C)ccc([N+](=O)[O-])c45)n(C)n3)ccnc12

-- reply
1. > 100 µM
2. 3.77 µM
3. > 100 µM
4. > 100 µM

-- ask Give the measured TGI of N#Cc1c(N)nc2c3c1NC(=O)C(C(N)=O)C3c1ccccc1O2 (stereo not given) .
-- reply > 100 µM

Data origin: PubChem BioAssay (NCI)
